Test system: KM12 colon
Test: NCI tumour cell line growth inhibition, 48 h
Known TGI of a selection of compounds
endpoint label: TGI (µM)

>>> recorded_value("COC(=O)c1ccc2c(c1)c1c(C)c3cnccc3c(C)c1n2C")
1.89
>>> recorded_value("N#CC(c1ccccc1)c1cccc2ccccc12 (stereo not given)")
66

* * *

Lab note: GI50 readings collected with SK-OV-3 ovarian for the following compounds.
endpoint label: GI50

>>> recorded_value("CCCCc1cc(O)ccc1O")
"64.5 µM"
>>> recorded_value("Cc1cc(O)cc(C)c1/C=C/c1cncc(C(=O)N(C)C)c1")
"> 25 µM"
>>> recorded_value("[Cl][Sn]([c]1ccccc1)[c]1ccccc1")
"18.4 µM"
>>> recorded_value("C=C1C(O)C2C(=C(CC(C)C)C13CC3)C(=O)C(C)(C)C2OC (stereo unspecified)")
"> 100 µM"
>>> recorded_value("Cc1ccc2c(c1)sc(-c1ccc(N(C)C)cc1)[n+]2C")
"2.04 µM"
>>> recorded_value("Nc1ccc2c(c1)[O][Sn]([c]1ccccc1)([c]1ccccc1)[O]C2=O")
"14.7 µM"
>>> recorded_value("OCC1OC(N2C=C(c3nc4ccccc4s3)C3C=CC=CC32)C(O)C1O (stereo unspecified)")
"28.2 µM"
>>> recorded_value("Cc1ccc(N2C(=O)C(Cl)=C(Nc3cccc(O)c3)C2=O)cc1Cl")
"21 µM"
>>> recorded_value("CC1(C)C(=O)/C(=C\\c2ccco2)C[C@]2(C)[C@H]3CC=C4[C@@H]5C[C@](C)(C(=O)O)CC[C@]5(C)CC[C@@]4(C)[C@]3(C)CC[C@@H]12")
"14.4 µM"
>>> recorded_value("O=C1NC(=O)C(c2ccccc2Cl)=C1Nc1cccc(O)c1")
"4.99 µM"
>>> recorded_value("O=C(Nc1ccc(Br)cc1)c1cc(Br)cc(Br)c1O")
"3.14 µM"

Values from PubChem BioAssay (NCI)
